Entries and their pKd
Molecular target: T1, extracellular domain of human BCMA (human, UniProt Q02223 1-54)
T1 construct: amine-linked to Octet AR2G tips; also called hsBCMA; BCMA (human)
T1 sequence: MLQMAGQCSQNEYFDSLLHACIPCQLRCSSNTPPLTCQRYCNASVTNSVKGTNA
Experiment: Octet BLI; Fab 200 nM
pKd: −log10 of the molar value.
measureName: pKd

>  <binder>
AB200-R1H26-R2Vk27 (Fab, V domains shown) VH: QVQLVQSGAEVKKPGSSVKVSCKASGGSFSNYWMHWVRQAPGQGLEWMGATYRIHSDTFYNQKFKGRVTITADKSTSTAYMELSSLRSEDTAVYYCARGAIYHGYDVLDNWGQGTLVTVSS VL: DIQMTQSPSSLSASVGDRVTITCRASQSISSYLNWYQQKPGKAPKLLIYATSNIQSGVPSRFSGSGSGTDFTLTISSLQPEDFATYYCQQYRKIPWSFGQGTKLEIKR

>  <measureName>
pKd

>  <testResult>
8.63

$$$$
>  <binder>
AB200-R1H26-R2Vk22 (Fab, V domains shown) VH: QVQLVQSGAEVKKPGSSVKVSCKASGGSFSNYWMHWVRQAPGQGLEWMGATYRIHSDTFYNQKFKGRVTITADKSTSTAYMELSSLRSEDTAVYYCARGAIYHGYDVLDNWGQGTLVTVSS VL: DIQMTQSPSSLSASVGDRVTITCRASQSISSYLNWYQQKPGKAPKLLIYATSNLQSGVPSRFSGSGSGTDFTLTISSLQPEDFATYYCQQYRKIPWSFGQGTKLEIKR

>  <measureName>
pKd

>  <testResult>
8.65

$$$$
